tested on: Rattus norvegicus; assay: Compound administered orally was tested for antiinflammatory activity in carrageenan-induced rat paw edema assay after 2 hours; format: functional; design: concentration or dose not given beside the values
Param threshold (30%) applies to Inhibition; output Condition met when value >= threshold, Condition not met when value < threshold.

Enquiry: // inclusive: Inhibition at least 30%? input: `O=C(O)Cc1csc(-c2nsc3ccccc23)n1`
Return: Condition met

Enquiry: // inclusive: Inhibition at least 30%? input: `CCOC(=O)Cc1csc(-c2nsc3ccccc23)n1`
Return: Condition not met

Enquiry: // inclusive: Inhibition at least 30%? input: `O=C(O)Cc1sc(-c2nsc3ccccc23)nc1-c1ccccc1`
Return: Condition not met

Enquiry: // inclusive: Inhibition at least 30%? input: `COc1ccc(-c2nc(-c3nsc4ccccc34)sc2CC(=O)O)cc1`
Return: Condition met

Enquiry: // inclusive: Inhibition at least 30%? input: `CCOC(=O)Cc1sc(-c2nsc3ccccc23)nc1-c1ccc(OC)cc1`
Return: Condition not met

Enquiry: // inclusive: Inhibition at least 30%? input: `O=C(O)Cc1sc(-c2nsc3ccccc23)nc1-c1ccc(Cl)cc1`
Return: Condition met

Enquiry: // inclusive: Inhibition at least 30%? input: CC(C)Cc1ccc(C(C)C(=O)O)cc1 (centres undefined)
Return: Condition met

Enquiry: // inclusive: Inhibition at least 30%? input: `CCOC(=O)Cc1sc(-c2nsc3ccccc23)nc1-c1ccccc1`
Return: Condition not met

Enquiry: // inclusive: Inhibition at least 30%? input: `CCOC(=O)Cc1sc(-c2nsc3ccccc23)nc1-c1ccc(Cl)cc1`
Return: Condition met
